System: Clostridium perfringens NCTC 8237
Experiment: microbe, parasite or virus in culture
Type: cell-based
Settings: Clostridium perfringens, NCTC8237, Clostridium perfringens NCTC 8237; procedures of Example 40
property-name: MIC (µg/mL)
Write the value in µg/mL as a bare number.

Recorded results for 2 compounds are shown here.
>>> val("CC1(C)CN=C2C(c3ccccc3)=[N+]([O-])c3cnccc3N2C1")
12.5
>>> val("Cc1ccc(C2=[N+]([O-])c3cccnc3N3CC(C)(C)CN=C23)cc1")
1.5

// lookup MIC | system=Clostridium perfringens NCTC 8237 | key= CC1(C)CN=C2C(c3ccc(Cl)cc3)=[N+]([O-])c3cnccc3N2C1 6.2

// lookup MIC | system=Clostridium perfringens NCTC 8237 | key= CC1(C)CN=C2C(c3ccc(Cl)cc3)=[N+]([O-])c3cccnc3N2C1 6.2

// lookup MIC | system=Clostridium perfringens NCTC 8237 | key= CCC1(CC)CN=C2C(c3ccccc3)=[N+]([O-])c3cnccc3N2C1 3.1

====

MBC values for the compounds below.
System: B. fragilis MZ-R ATCC 11295
Assay: MIC/MBC against Bacteroides fragilis strain D
Format: cell-based
Conditions: ATCC11295, 99.9% reduction in viable count

Would you kindly share the measured MBC for Cc1ccc(C2=[N+]([O-])c3cnccc3N3CC(C)(C)CN=C23)cc1 [Example 19] ? 1.5 µg/mL

Would you kindly share the measured MBC for Cc1ccc(C2=[N+]([O-])c3cccnc3N3CC(C)(C)CN=C23)cc1 [Example 20] ? < 0.8 µg/mL

Would you kindly share the measured MBC for CCC1(C)CN=C2C(c3ccccc3)=[N+]([O-])c3cnccc3N2C1 (stereo not shown) [Example 23] ? < 0.8 µg/mL

Would you kindly share the measured MBC for CC1CN=C2C(c3ccccc3)=[N+]([O-])c3cccnc3N2C1 (stereo not shown) [Example 32] ? < 0.8 µg/mL

====

Test system Propionebacterium acnes NCTC 737, MIC listed for each of the compounds.

Recorded results for 5 compounds are shown here.
>>> val("CCC1(C)CN=C2C(c3ccccc3)=[N+]([O-])c3cccnc3N2C1 (centres unmarked)")
"100 µg/mL"
>>> val("CC1(C)CN=C2C(c3ccccc3)=[N+]([O-])c3cccnc3N2C1")
"100 µg/mL"
>>> val("[O-][N+]1=C(c2ccccc2)C2=NCC3(CCCCC3)CN2c2ccncc21")
"> 100 µg/mL"
>>> val("CC1(C)CN=C2C(c3ccc(Cl)cc3)=[N+]([O-])c3cccnc3N2C1")
"100 µg/mL"
>>> val("CCC1(C)CN=C2C(c3ccccc3)=[N+]([O-])c3cnccc3N2C1 (centres unmarked)")
"> 100 µg/mL"

// lookup MIC | system=Propionebacterium acnes NCTC 737 | key= COc1ccc(C2=[N+]([O-])c3cccnc3N3CC(C)(C)CN=C23)cc1OC > 100 µg/mL

// lookup MIC | system=Propionebacterium acnes NCTC 737 | key= CC1(C)CN=C2C(c3ccc(F)cc3)=[N+]([O-])c3cccnc3N2C1 > 100 µg/mL

// lookup MIC | system=Propionebacterium acnes NCTC 737 | key= CC1(C)CN=C2C(c3ccccc3)=[N+]([O-])c3ccncc3N2C1 > 100 µg/mL

// lookup MIC | system=Propionebacterium acnes NCTC 737 | key= CC1(C)CN=C2C(c3ccc(Cl)cc3)=[N+]([O-])c3cnccc3N2C1 > 100 µg/mL

// lookup MIC | system=Propionebacterium acnes NCTC 737 | key= Cc1ccc(C2=[N+]([O-])c3cccnc3N3CC(C)(C)CN=C23)cc1 > 100 µg/mL

// lookup MIC | system=Propionebacterium acnes NCTC 737 | key= CCC1(CC)CN=C2C(c3ccccc3)=[N+]([O-])c3cccnc3N2C1 100 µg/mL

// lookup MIC | system=Propionebacterium acnes NCTC 737 | key= CC1(C)CN=C2C(c3ccccc3)=[N+]([O-])c3cnccc3N2C1 > 100 µg/mL

// lookup MIC | system=Propionebacterium acnes NCTC 737 | key= CCC1(CC)CN=C2C(c3ccccc3)=[N+]([O-])c3cnccc3N2C1 > 100 µg/mL

// lookup MIC | system=Propionebacterium acnes NCTC 737 | key= [O-][N+]1=C(c2ccccc2)C2=NCC3(CCCCC3)CN2c2ncccc21 > 100 µg/mL

====

Test system: B. fragilis 23745
Conditions: Bacteroides fragilis, 23745, in Mus musculus, po, 48 h, read-out: DOSE GIVING 1 LOG REDUCTION, p.o., after infection and twice daily for 2 days; log CFU/ml liver homogenate; test compound
property-name: ED (1 log reduction) (mg/kg)
Write the value in mg/kg as a bare number.

Recorded results for 3 compounds are shown here.
>>> val("CC1CN=C2C(c3ccccc3)=[N+]([O-])c3cccnc3N2C1 (stereo not shown) [Example 32]")
0.95
>>> val("CCCC1(C)CN=C2C(c3ccccc3)=[N+]([O-])c3cnccc3N2C1 (stereo not shown) [Example 27]")
2.5
>>> val("COc1ccc(C2=[N+]([O-])c3cnccc3N3CC(C)(C)CN=C23)cc1OC [Example 21]")
2.5

Consider now this further compound.
Would you kindly share the measured ED (1 log reduction) for CC1(C)CN=C2C(c3ccc(F)cc3)=[N+]([O-])c3cnccc3N2C1 [Example 33] ? 0.9

====

Test system: Clostridium perfringens NCTC 523
Experiment: microbe, parasite or virus in culture
Type: cell-based
Settings: Clostridium perfringens, NCTC523, Clostridium perfringens NCTC 523; procedures of Example 40
property-name: MIC

Recorded results for 10 compounds are shown here.
>>> val("[O-][N+]1=C(c2ccccc2)C2=NCC3(CCCCC3)CN2c2ccncc21")
"6.2 µg/mL"
>>> val("CC1(C)CN=C2C(c3ccccc3)=[N+]([O-])c3ccncc3N2C1")
"25 µg/mL"
>>> val("CC1(C)CN=C2C(c3ccc(F)cc3)=[N+]([O-])c3cccnc3N2C1")
"3.1 µg/mL"
>>> val("CC1(C)CN=C2C(c3ccccc3)=[N+]([O-])c3cccnc3N2C1")
"< 0.8 µg/mL"
>>> val("Cc1ccc(C2=[N+]([O-])c3cnccc3N3CC(C)(C)CN=C23)cc1")
"1.5 µg/mL"
>>> val("COc1ccc(C2=[N+]([O-])c3cccnc3N3CC(C)(C)CN=C23)cc1OC")
"< 0.8 µg/mL"
>>> val("CCC1(C)CN=C2C(c3ccccc3)=[N+]([O-])c3cnccc3N2C1 (stereo not shown)")
"1.5 µg/mL"
>>> val("CCC1(CC)CN=C2C(c3ccccc3)=[N+]([O-])c3cnccc3N2C1")
"3.1 µg/mL"
>>> val("CC1(C)CN=C2C(c3ccccc3)=[N+]([O-])c3cnccc3N2C1")
"1.5 µg/mL"
>>> val("CC1(C)CN=C2C(c3ccc(Cl)cc3)=[N+]([O-])c3cnccc3N2C1")
"< 0.8 µg/mL"

Would you kindly share the measured MIC for CCC1(C)CN=C2C(c3ccccc3)=[N+]([O-])c3cccnc3N2C1 (stereo not shown) ? 1.5 µg/mL

Would you kindly share the measured MIC for [O-][N+]1=C(c2ccccc2)C2=NCC3(CCCCC3)CN2c2ncccc21 ? 1.5 µg/mL

Would you kindly share the measured MIC for CC1(C)CN=C2C(c3ccc(Cl)cc3)=[N+]([O-])c3cccnc3N2C1 ? < 0.8 µg/mL

Would you kindly share the measured MIC for CCC1(CC)CN=C2C(c3ccccc3)=[N+]([O-])c3cccnc3N2C1 ? 1.5 µg/mL

Would you kindly share the measured MIC for Cc1ccc(C2=[N+]([O-])c3cccnc3N3CC(C)(C)CN=C23)cc1 ? 1.5 µg/mL

Would you kindly share the measured MIC for CC1CN=C2C(c3ccccc3)=[N+]([O-])c3cccnc3N2C1 (stereo not shown) ? < 0.8 µg/mL

====

Test system Peptococcous magnus, MIC listed for each of the compounds.

Recorded results for 3 compounds are shown here.
>>> val("CCC1(CC)CN=C2C(c3ccccc3)=[N+]([O-])c3cccnc3N2C1")
"12.5 µg/mL"
>>> val("CC1(C)CN=C2C(c3ccc(Cl)cc3)=[N+]([O-])c3cccnc3N2C1")
"< 0.8 µg/mL"
>>> val("Cc1ccc(C2=[N+]([O-])c3cnccc3N3CC(C)(C)CN=C23)cc1")
"< 0.8 µg/mL"

// lookup MIC | system=Peptococcous magnus | key= CCC1(CC)CN=C2C(c3ccccc3)=[N+]([O-])c3cnccc3N2C1 100 µg/mL

// lookup MIC | system=Peptococcous magnus | key= Cc1ccc(C2=[N+]([O-])c3cccnc3N3CC(C)(C)CN=C23)cc1 25 µg/mL

// lookup MIC | system=Peptococcous magnus | key= CC1(C)CN=C2C(c3ccccc3)=[N+]([O-])c3ccncc3N2C1 100 µg/mL

// lookup MIC | system=Peptococcous magnus | key= [O-][N+]1=C(c2ccccc2)C2=NCC3(CCCCC3)CN2c2ncccc21 < 0.8 µg/mL

// lookup MIC | system=Peptococcous magnus | key= Cc1ncc([N+](=O)[O-])n1CCO [Metronidazole, metronidazole, reference compound] < 0.8 µg/mL

// lookup MIC | system=Peptococcous magnus | key= CC1CN=C2C(c3ccccc3)=[N+]([O-])c3cccnc3N2C1 (centres unmarked) < 0.8 µg/mL

// lookup MIC | system=Peptococcous magnus | key= CC1(C)CN=C2C(c3ccccc3)=[N+]([O-])c3cccnc3N2C1 < 0.8 µg/mL

// lookup MIC | system=Peptococcous magnus | key= CC1(C)CN=C2C(c3ccccc3)=[N+]([O-])c3cnccc3N2C1 < 0.8 µg/mL
